- Target: UniProt:Q9H7B4
- Experiment notes: SMYD3 biochemical assay (SPA, 3H-SAM methylation of MEKK2 protein substrate)
- Details: read-out: SMYD3 Biochem IC50*
- Text: S-adenosylmethionine (SAM), S-adenosylhomocysteine (SAH), Tris, Tween20, dimethylsulfoxide (DMSO), bovine skin gelatin (BSG), and Tris(2-carboxyethyl)phosphine hydrochloride solution (TCEP) were purchased from Sigma-Aldrich at the highest level of purity possible. ^3H-SAM was purchase from American Radiolabeled Chemicals with a specific activity of 80 Ci/mmol. 384-well opaque white OptiPlates and SPA beads (Perkin Elmer, catalog # RPNQ0013) were purchased from PerkinElmer. […]
pIC50: −log10 of the molar value.
Kind request: treat 8 as inclusive, so pIC50 at 8 or higher is T, anything lower is F.

Exam item: Reported pIC50 reaches at least 8 for `CC(C)N1CCC(CS(=O)(=O)N2[C@@H]3CC[C@H]2C[C@@H](NC(=O)c2cc(C4CC4)on2)C3)CC1` ?
Marked response: T

Exam item: pIC50 >= 8 for `CC[C@@H]1CNCCN1S(=O)(=O)N1CC[C@H](NC(=O)c2cc(C3CC3)on2)C[C@@H]1C` ?
Marked response: F

Exam item: Hello, I need to know if CC(C)C1CN(S(=O)(=O)N2[C@@H]3CC[C@H]2C[C@@H](NC(=O)c2cc(C4CC4)on2)C3)CCN1 (stereo partly shown) has measured pIC50 not below 8. Thanks!
Marked response: F

Exam item: Reported pIC50 at or above 8? `CN(CCN1CCCC1)C1CCN(S(=O)(=O)N2[C@@H]3CC[C@H]2C[C@@H](NC(=O)c2cc(C4CC4)on2)C3)CC1`
Marked response: F
